Tested on: HSSY-II complex spheroid growth, percent test/control
test.name: Anticancer human tumor HSSY-II cell line growth inhibition [Asc];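 also: spheroids exposed to drug for 7 days before reading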
test.parameters: second compound 1 µM; first compound 0.1 µM; active compounds read low
Source text: Multicellular complex tumor spheroid response to apoptosis pathway targeting inhibitors Alrizomadlin, Pelcitoclax, and Dasminapant in combination with a variety of drugs and investigational agents in selected tumor cell lines […] Compounds. […] If the clinical Cmax for an agent had not been determined, the highest concentration tested was 10 microM. […]
Each entry below carries its recorded viability, T/C.
// note: answer is a bare numeric in %

Known viability, T/C results, listed for orientation:
>  <compound>
C=C(F)C(=O)N1CCN(c2nc(OCC3CCCN3C)nc3c2CCN(c2cccc4cccc(Cl)c24)C3)CC1CC#N (stereo not drawn) + CNC(C)C(=O)NC1CN(S(=O)(=O)c2cccc(S(=O)(=O)N3CCC4CCC(C(=O)NC(c5ccccc5)c5ccccc5)N4C(=O)C(NC(=O)C(C)NC)C3)c2)CCC2CCC(C(=O)NC(c3ccccc3)c3ccccc3)N2C1=O

>  <viability, T/C (%)>
80.6

$$$$
>  <compound>
O=C(c1ccc(F)c(F)c1Nc1ccc(I)cc1F)N1CC(O)([C@@H]2CCCCN2)C1 + Cc1c(S(C)(=O)=O)c(-c2cc(F)cc(N3CCN(c4ccc(NS(=O)(=O)c5ccc(NC(CCN6CCC(C(=O)OCCCP(=O)(O)O)CC6)CSc6ccccc6)c(S(=O)(=O)C(F)(F)F)c5)cc4)CC3)c2)c(-c2ccc(Cl)cc2)n1C(C)C

>  <viability, T/C (%)>
110

$$$$

Q: // Input: C#Cc1c(F)ccc2cc(O)cc(-c3ncc4c(N5CC6CCC(C5)N6)nc(OCC56CCCN5CC(F)C6)nc4c3F)c12 (stereo not drawn) + CNC(C)C(=O)NC1CN(S(=O)(=O)c2cccc(S(=O)(=O)N3CCC4CCC(C(=O)NC(c5ccccc5)c5ccccc5)N4C(=O)C(NC(=O)C(C)NC)C3)c2)CCC2CCC(C(=O)NC(c3ccccc3)c3ccccc3)N2C1=O . Output its viability, T/C only.
Result: 90.8

====

Test system: HSSY-II complex spheroid growth, percent test/control
test.name: Anticancer human tumor HSSY-II cell line growth inhibition [Asc];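 also: spheroids exposed to drug for 7 days before reading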
test.parameters: second compound 0.0949 µM; first compound 0.01 µM; active compounds read low
Classify: MET when viability, T/C is strictly less than 40%; NOT MET when viability, T/C is not.

>  <compound>
NC1CCC(NC2CC2c2ccccc2)CC1 (stereo unspecified) + CCN1C(C(=O)NC23CCC(C(=O)O)(CC2)CC3)C(c2cccc(Cl)c2F)C2(C(=O)Nc3cc(Cl)ccc32)C12CCCCC2

>  <experimental.target>
HSSY-II complex spheroid growth, percent test/control

>  <category.label>
NOT MET

$$$$
>  <compound>
Cn1ncnc1[C@H]1c2n[nH]c(=O)c3cc(F)cc(c23)N[C@@H]1c1ccc(F)cc1 + CCN1C(C(=O)NC23CCC(C(=O)O)(CC2)CC3)C(c2cccc(Cl)c2F)C2(C(=O)Nc3cc(Cl)ccc32)C12CCCCC2

>  <experimental.target>
HSSY-II complex spheroid growth, percent test/control

>  <category.label>
MET

$$$$
>  <compound>
CNC(C)C(=O)NC1CN(S(=O)(=O)c2cccc(S(=O)(=O)N3CCC4CCC(C(=O)NC(c5ccccc5)c5ccccc5)N4C(=O)C(NC(=O)C(C)NC)C3)c2)CCC2CCC(C(=O)NC(c3ccccc3)c3ccccc3)N2C1=O (stereo unspecified) + CCN1C(C(=O)NC23CCC(C(=O)O)(CC2)CC3)C(c2cccc(Cl)c2F)C2(C(=O)Nc3cc(Cl)ccc32)C12CCCCC2

>  <experimental.target>
HSSY-II complex spheroid growth, percent test/control

>  <category.label>
NOT MET

$$$$

Q: Here's an entry: CCN1CCN(Cc2ccc(Nc3ncc(F)c(-c4cc(F)c5nc(C)n(C(C)C)c5c4)n3)nc2)CC1 + CCN1C(C(=O)NC23CCC(C(=O)O)(CC2)CC3)C(c2cccc(Cl)c2F)C2(C(=O)Nc3cc(Cl)ccc32)C12CCCCC2 . Is its viability, T/C below 40%?
Result: NOT MET

Q: Here's an entry: COc1c(OCCCN2CCOCC2)ccc2c3n(c(=NC(=O)c4cnc(N)nc4)nc12)CCN3 + CCN1C(C(=O)NC23CCC(C(=O)O)(CC2)CC3)C(c2cccc(Cl)c2F)C2(C(=O)Nc3cc(Cl)ccc32)C12CCCCC2 . Is its viability, T/C below 40%?
Result: NOT MET

Q: Here's an entry: O=C(c1ccc(F)c(F)c1Nc1ccc(I)cc1F)N1CC(O)([C@@H]2CCCCN2)C1 + CCN1C(C(=O)NC23CCC(C(=O)O)(CC2)CC3)C(c2cccc(Cl)c2F)C2(C(=O)Nc3cc(Cl)ccc32)C12CCCCC2 . Is its viability, T/C below 40%?
Result: NOT MET
